- Tested target: BTK (C481S) (Homo sapiens (Human), UniProt Q06187, C481S)
- Sequence (Q06187 whole entry C481S): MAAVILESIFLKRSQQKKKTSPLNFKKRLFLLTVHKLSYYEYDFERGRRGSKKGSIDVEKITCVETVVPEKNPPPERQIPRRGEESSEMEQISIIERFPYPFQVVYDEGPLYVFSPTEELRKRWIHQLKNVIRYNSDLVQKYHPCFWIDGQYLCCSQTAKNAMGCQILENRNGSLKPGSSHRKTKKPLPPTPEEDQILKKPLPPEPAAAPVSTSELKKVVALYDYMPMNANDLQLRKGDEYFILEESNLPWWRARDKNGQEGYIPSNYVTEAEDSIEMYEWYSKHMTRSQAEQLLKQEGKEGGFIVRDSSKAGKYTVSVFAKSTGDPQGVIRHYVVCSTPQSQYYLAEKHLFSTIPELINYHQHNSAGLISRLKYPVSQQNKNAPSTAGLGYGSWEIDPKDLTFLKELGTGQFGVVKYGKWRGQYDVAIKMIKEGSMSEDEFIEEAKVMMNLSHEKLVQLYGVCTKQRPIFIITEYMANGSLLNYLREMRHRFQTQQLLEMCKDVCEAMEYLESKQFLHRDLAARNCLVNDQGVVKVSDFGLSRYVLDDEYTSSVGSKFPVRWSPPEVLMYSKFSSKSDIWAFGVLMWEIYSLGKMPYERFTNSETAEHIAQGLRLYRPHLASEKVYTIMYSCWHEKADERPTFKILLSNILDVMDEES
- Assay remarks: BTK C481S enzyme experiment (ADP-Glo kinase assay)
- Condition description: 10 nM BTK C481S, ATP 125 μM, Poly(Glu4, Tyr1), 90 minutes at 20° C.
Assay endpoint: IC50 (nM)
Answers are plain numbers, in nM.

Look at each molecule and report its IC50.
1. CN1CCC2(C1)Nc1c(cnc3[nH]cc(C(=O)c4ccc(Oc5ccccc5)cc4Cl)c13)NC2=O (stereo not shown) [Z2]
2. COCC1(C)Nc2c(cnc3[nH]cc(C(=O)c4ccc(Oc5cc(C)ccn5)cc4F)c23)NC1=O (single isomer, unassigned) [Z69-2]
3. CN1CCC2(C1)Nc1c(cnc3[nH]cc(C(=O)c4ccc(Oc5ccccc5)cc4Cl)c13)N(C)C2=O (stereo not shown) [Z8]

Result:
1. 12.3
2. 28.3
3. 27.9

Look at each molecule and report its IC50.
1. CN(C)C1CCC2(C1)Nc1c(cnc3[nH]cc(C(=O)c4ccc(Oc5ccccc5)cc4Cl)c13)NC2=O (stereo not shown) [Z137]
2. COC[C@]1(C)Nc2c(cnc3[nH]cc(C(=O)c4ccc(Oc5cccc(Cl)c5)cc4Cl)c23)NC1=O [Z165]
3. COC[C@]1(C)Nc2c(cnc3[nH]cc(C(=O)c4ccc(Oc5cccc(C#N)c5)cc4Cl)c23)NC1=O [Z131]
4. CN1CCC2(CC1)Nc1c(cnc3[nH]cc(C(=O)c4ccc(Oc5ccccc5)cc4Cl)c13)NC2=O [Z17]
5. COC[C@]1(C)Nc2c(cnc3[nH]cc(C(=O)c4ccc(Oc5c(OC)ccc(F)c5F)cc4Cl)c23)NC1=O [Z177]
6. COC[C@]1(C)Nc2c(cnc3[nH]cc(C(=O)c4ccc(Oc5cc(F)ccc5OC)cc4Cl)c23)NC1=O [Z169]
7. O=C(c1ccc(Oc2ccccc2)cc1Cl)c1c[nH]c2ncc3c(c12)N[C@]1(CC[C@@H](O)C1)C(=O)N3 (single isomer, unassigned) [Z24-c]
8. COCC1(C)Nc2c(cnc3[nH]cc(C(=O)c4ccc(Oc5cc(C6CC6)ccn5)cc4Cl)c23)NC1=O (single isomer, unassigned) [Z73-2]

Result:
10.3
73.9
37.8
273
11.1
9
3
60.8

The values you see were collected from patent US20240360154A1.
